Where do these numbers come from? They come from patent US11666558B2.

assay: Ocular tissue concentrations (aqueous humor, vitreous humor, iris, retina, choroid, cornea) after topical ocular, subcutaneous and intravitreal administration; type: in vivo, New Zealand White rabbits; settings: New Zealand White, rabbit, iris homogenate, other: intravitreal, 2.5 mg/eye, Iris homogenate, 6.0 hr, left eye, intravitreal 2.5 mg/eye (group 5), individual animals; read-out: Conc. (ng/mL) OS
Observed Property: concentration at 6 h

input: Look at this compound and give its reported concentration at 6 h. COC(=O)N[C@@H](Cc1ccccc1)C(=O)N[C@@H](Cc1ccc(NS(=O)(=O)O)cc1)c1csc(-c2cccs2)n1 [Compound 1]
output: 13800 ng/mL

----------
assay: Plasma concentrations and pharmacokinetic parameters after topical ocular, subcutaneous and intravitreal administration; assay type: in vivo, New Zealand White rabbits; settings: New Zealand White, rabbit, plasma, other: intravitreal, 1.55 mg/kg, plasma; intravitreal 2.5 mg/eye (~1.55 mg/kg), solution
Where a name gives a salt, the structure may show the parent alone.
Observed Property: half-life
Form entry: enter the amount, then its unit.

input: What half-life value was documented for this molecule, COC(=O)N[C@@H](Cc1ccccc1)C(=O)N[C@@H](Cc1ccc(NS(=O)(=O)O)cc1)c1csc(-c2cccs2)n1 [Compound 1 sodium salt] ?
output: 8.08 h
